Every entry's value here was drawn from the MegaScale stability set (Tsuboyama et al. 2023).

B1: EEHEE_rd3_1049 (parent)
chain: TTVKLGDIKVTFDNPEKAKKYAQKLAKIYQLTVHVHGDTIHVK

Variants of: B1
experimental-protocol: folding stability dG (cDNA display proteolysis); higher = more stable
condition-parameters: PBS, room temperature
reported-endpoint: folding stability dG
Lab note: write values as number then unit, every time.

input: Entry `H34Y` : reported folding stability dG = ?
output: 2.39 kcal/mol

input: Entry `V35P` : reported folding stability dG = ?
output: 0.957 kcal/mol

input: Entry `Q23R` : reported folding stability dG = ?
output: 1.94 kcal/mol

input: Entry `T39C` : reported folding stability dG = ?
output: 2.26 kcal/mol

input: Entry `V3L` : reported folding stability dG = ?
output: 1.09 kcal/mol

input: Entry `Q30E` : reported folding stability dG = ?
output: 1.62 kcal/mol

input: Entry `L5P` : reported folding stability dG = ?
output: 0.495 kcal/mol

input: Entry `T2L` : reported folding stability dG = ?
output: 1.51 kcal/mol

input: Entry `L31Q` : reported folding stability dG = ?
output: 0.409 kcal/mol

input: Entry `T11C` : reported folding stability dG = ?
output: 2.98 kcal/mol

input: Entry `Q23P` : reported folding stability dG = ?
output: -0.329 kcal/mol

input: Entry `D7I` : reported folding stability dG = ?
output: 2.64 kcal/mol

input: Entry `K43V` : reported folding stability dG = ?
output: 2.68 kcal/mol

input: Entry `T2H` : reported folding stability dG = ?
output: 1.82 kcal/mol

input: Entry `D38V` : reported folding stability dG = ?
output: 1.57 kcal/mol

input: Entry `K27Q` : reported folding stability dG = ?
output: 1.94 kcal/mol

input: Entry `K19T` : reported folding stability dG = ?
output: 1.55 kcal/mol

input: Entry `T39S` : reported folding stability dG = ?
output: 1.24 kcal/mol

input: Entry `K4L` : reported folding stability dG = ?
output: 2.47 kcal/mol

input: Entry `F12T` : reported folding stability dG = ?
output: 0.094 kcal/mol

input: Entry `T11I` : reported folding stability dG = ?
output: 2.33 kcal/mol

input: Entry `K20D` : reported folding stability dG = ?
output: 1.55 kcal/mol

input: Entry `V10D` : reported folding stability dG = ?
output: 0.272 kcal/mol

input: Entry `V3H` : reported folding stability dG = ?
output: 0.671 kcal/mol

input: Entry `V33N` : reported folding stability dG = ?
output: -0.39 kcal/mol

input: Entry `Y21E` : reported folding stability dG = ?
output: -0.031 kcal/mol

input: Entry `I8K` : reported folding stability dG = ?
output: 1.83 kcal/mol

input: Entry `A18H` : reported folding stability dG = ?
output: 0.152 kcal/mol

input: Entry `I8Y` : reported folding stability dG = ?
output: 2.87 kcal/mol

input: Entry `T32E` : reported folding stability dG = ?
output: 1.82 kcal/mol

input: Entry `T39M` : reported folding stability dG = ?
output: 1.96 kcal/mol

input: Entry `L5A` : reported folding stability dG = ?
output: 0.939 kcal/mol

input: Entry `I40P` : reported folding stability dG = ?
output: 0.463 kcal/mol

input: Entry `L25P` : reported folding stability dG = ?
output: -0.554 kcal/mol

input: Entry `K20T` : reported folding stability dG = ?
output: 1.57 kcal/mol

input: Entry `D7N` : reported folding stability dG = ?
output: 2.85 kcal/mol
